B1: LINE1-full (parent)
chain: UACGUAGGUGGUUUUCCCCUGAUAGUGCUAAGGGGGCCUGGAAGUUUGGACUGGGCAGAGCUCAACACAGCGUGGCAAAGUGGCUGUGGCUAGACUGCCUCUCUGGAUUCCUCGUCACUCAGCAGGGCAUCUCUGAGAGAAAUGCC

Variants of: B1
assay_method_text: self-cleavage, relative activity (ratio to wild type); higher = more cleavage; in vitro, sequencing; the parent is a self-cleaving ribozyme
# reported self-cleavage; entries follow
Response field accepts a number only; no unit should be typed.

>>> observed_value("C76A U132C")
2.08
>>> observed_value("U13C G127C")
1.47
>>> observed_value("U47C U102C")
1.9
>>> observed_value("A94G U96C")
0.11
>>> observed_value("U12G U108A")
0.77
>>> observed_value("G89U U134G")
0.04
>>> observed_value("G10A U119C")
1
>>> observed_value("U73A U134A")
1.28
>>> observed_value("G72A G137A")
0.46
>>> observed_value("G4A U47A")
0.52

What value of self-cleavage has been reported for the following variant? A77G U96A
0.13

Queued: A30G U52C
1.53

Queued: U1C A124G
0.75

Queued: A140U
1.26

Queued: C145U
1.32

Queued: A30C U130A
0.75

Queued: A22G G122C
1.31

Queued: A30G A67U
0.1

Queued: U104C U143A
1.56

Queued: C63U A79G
0.58

Queued: A65U U112C
0.26

Queued: G70U U112A
0.05

The reported measurements were obtained from the RNAGym collection of RNA variant scans (doi:10.7554/elife.90254).
